// data source = patent US20170052184A1

Molecular target: T1, HCV Core1-169 (HCV-1, UniProt P26664 1-169)
T1 construct: also called recombinant HCV core antigen
T1 sequence: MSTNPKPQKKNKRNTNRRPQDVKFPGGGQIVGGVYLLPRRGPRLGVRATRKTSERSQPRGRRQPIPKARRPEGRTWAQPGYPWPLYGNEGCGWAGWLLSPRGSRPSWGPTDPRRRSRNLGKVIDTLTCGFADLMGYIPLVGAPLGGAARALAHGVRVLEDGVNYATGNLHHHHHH
Test: EIA, core1-169 coated on plate; further: test concentration or dose not given here
Each entry below lists one item and its recorded OD (A492) value.

>  <binder>
HCV 208B-911 (antibody, V domains shown) VH: QVHLQQPGAELVRPGVSVKLSCKASGYTFTTYSINWMKQRPGQGLEWIGNIYPSTSHTNYNQKFRDKATMTVDKSSSTAYMQLSSPTSEDSAVYYCTINAYSMDYWGQGTSVTVSS VL: QIVLTQSPEIMSASPGEKVTITCSASSSVSFMYWFQQKPGTSPKLWIYITSNLASGVPTRFSGSGSGTSYSLTISRMEAEDAATYYCQQRSSFPYTFGGGTKLEMKR

>  <OD (A492), OD>
1.18

$$$$
>  <binder>
HCV 208B-395 (antibody, V domains shown) VH: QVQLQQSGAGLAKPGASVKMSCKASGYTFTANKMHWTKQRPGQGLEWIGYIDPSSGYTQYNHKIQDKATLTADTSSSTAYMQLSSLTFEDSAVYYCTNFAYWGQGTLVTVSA VL: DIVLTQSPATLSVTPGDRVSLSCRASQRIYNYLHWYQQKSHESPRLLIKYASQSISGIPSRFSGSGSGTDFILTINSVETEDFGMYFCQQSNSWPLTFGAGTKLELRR

>  <OD (A492), OD>
0.5

$$$$
>  <binder>
HCV 208B-826 (antibody, V domains shown) VH: DVQLVESGGGLVQAGGSRKLSCAASGFPFSSFGMHWVRQAPEKGLEWVASISSRTSKIYYADNLKGRFTISRDNPKNTLFLQMTSLGSEDTAMYYCVRSVFGNSYWFFDVWGAGTTVTVSS VL: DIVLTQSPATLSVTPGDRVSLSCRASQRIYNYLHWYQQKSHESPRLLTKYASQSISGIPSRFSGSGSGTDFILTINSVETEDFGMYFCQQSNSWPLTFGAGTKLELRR

>  <OD (A492), OD>
0.65

$$$$
